# SYSTEM: UniProt:P29274
# Sequence (P29274 whole entry): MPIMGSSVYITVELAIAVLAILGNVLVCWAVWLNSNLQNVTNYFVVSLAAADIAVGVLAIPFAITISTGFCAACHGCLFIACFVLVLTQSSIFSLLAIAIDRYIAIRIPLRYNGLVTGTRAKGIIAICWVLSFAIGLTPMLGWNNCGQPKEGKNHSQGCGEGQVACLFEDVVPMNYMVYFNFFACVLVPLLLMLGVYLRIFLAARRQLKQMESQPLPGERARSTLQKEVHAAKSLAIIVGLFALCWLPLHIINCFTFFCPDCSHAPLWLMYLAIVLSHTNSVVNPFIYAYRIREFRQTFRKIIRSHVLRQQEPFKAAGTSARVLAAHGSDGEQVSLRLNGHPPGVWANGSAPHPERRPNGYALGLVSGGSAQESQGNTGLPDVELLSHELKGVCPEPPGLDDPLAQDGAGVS
# TEST: Displacement of radioligand from human recombinant adenosine A2A receptor at 21 degC after 90 mins by cell-based microplate scintillation counting
VALUE_TYPE: Ki (nM)

Solved entries:
>>> df
                                   molecule  units_label  measured
0   NCc1ccc(Cn2nnc3c(-c4ccco4)nc(N)nc32)cc1           nM       241
1  CC(=O)Nc1ccc(Cn2nnc3c(-c4ccco4)nc(N)nc32)cc1           nM       116
2   Nc1nc(-c2ccco2)c2nnn(Cc3cccc(F)c3F)c2n1           nM       2.3
3    Nc1ccc(Cn2nnc3c(-c4ccco4)nc(N)nc32)cc1           nM       1.5

A = N#Cc1cccc(Cn2nnc3c(-c4ccco4)nc(N)nc32)c1
B = N#Cc1ccc(Cn2nnc3c(-c4ccco4)nc(N)nc32)cc1
C = Nc1nc(-c2ccco2)c2nnn(Cc3ccc(N)c(O)c3)c2n1
D = CCc1cc(Cn2nnc3c(-c4ccco4)nc(N)nc32)ccc1N
[in] Ascending by Ki, please: list the molecules accordingly. Rank them, then answer with their labels in that order.
[out] D, C, A, B

P = Cc1ccc(-c2nc(N)nc3c2nnn3Cc2ccccc2F)o1
Q = Nc1nc(-c2ccco2)c2nnn(Cc3ccc4[nH]nnc4c3)c2n1
[in] Form: Entry with minimum Ki (choose one): P / Q When you have decided, please share the label of that item.
[out] P
(P: 2.1 nM, Q: 11.9 nM)

1 = Nc1nc(-c2ccco2)c2nnn(Cc3cnccn3)c2n1
2 = Nc1nc(-c2ccco2)c2nnn(Cc3cccs3)c2n1
3 = CC(C)NC(=O)c1cccc(Cn2nnc3c(-c4ccco4)nc(N)nc32)c1
4 = COc1ccccc1Cn1nnc2c(-c3ccco3)nc(N)nc21
[in] Order field: Ki | Direction: descending (largest first) Rank them, then answer with their labels in that order.
[out] 1, 3, 4, 2

====

# SYSTEM: Adenosine receptor A3 (Homo sapiens, UniProt P0DMS8)
# Sequence (P0DMS8 whole entry): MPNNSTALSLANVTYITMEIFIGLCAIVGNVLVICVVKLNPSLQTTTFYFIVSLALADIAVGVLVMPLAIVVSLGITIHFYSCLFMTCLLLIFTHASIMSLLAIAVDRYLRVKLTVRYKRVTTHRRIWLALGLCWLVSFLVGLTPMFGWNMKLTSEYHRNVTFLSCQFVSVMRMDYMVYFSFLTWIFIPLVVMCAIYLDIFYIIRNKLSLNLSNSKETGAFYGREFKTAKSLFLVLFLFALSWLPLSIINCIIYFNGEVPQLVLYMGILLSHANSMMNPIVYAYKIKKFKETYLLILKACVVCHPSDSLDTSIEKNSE
# TEST: Displacement of radioligand from human recombinant adenosine A3 receptor at 21 degC after 60 mins by cell-based microplate scintillation counting
pKi: −log10 of the molar value.
VALUE_TYPE: pKi

>>> print(df.to_string())
                                  molecule  measured
0       Nc1nc(-c2ccco2)c2nnn(Cc3cccs3)c2n1      6.91
1     Nc1nc(-c2nccs2)c2nnn(Cc3ccccc3F)c2n1      5.66
2  Nc1nc(-c2ccco2)c2nnn(Cc3cc(F)ccc3F)c2n1      6.35

I = Nc1nc(-c2cnn[nH]2)c2nnn(Cc3ccccc3F)c2n1
II = Nc1nc(-c2ccco2)c2nnn(Cc3cccc(Cl)c3)c2n1
[in] Which item exceeds the other in pKi, I or II ? When you have decided, please share the label of that item.
[out] II
(II: 6.57, I: 5.55)

====

# TEST: Solubility at neutral pH
# Assay type: physicochemical
VALUE_TYPE: solubility (mg/mL)

P = CS(=O)(=O)O.Cc1cc(Cn2nnc3c(-c4ccco4)nc(N)nc32)ccc1N
Q = Cc1cc(Cn2nnc3c(-c4ccco4)nc(N)nc32)ccc1N.Cl.Cl
[in] Form: Entry with minimum solubility (choose one): P / Q When you have decided, please share the label of that item.
[out] Q
